biological target: T1, human IL-2 (human, UniProt P60568 21-153, biotin label in the IL2RB blocking assay); assay: HTRF, IL-2:Fc-IL2RB
T1 construct: also called biotin-labeled IL-2 (Acro Biosystems IL2-H82E4)
T1 sequence (P60568 21-153 limits assumed): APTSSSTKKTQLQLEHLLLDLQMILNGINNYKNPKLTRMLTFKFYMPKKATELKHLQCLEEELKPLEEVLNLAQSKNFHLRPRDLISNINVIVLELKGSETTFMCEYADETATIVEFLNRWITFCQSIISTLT
Measurement Label: IL2RB Blocking (HTRF signal)
Answer with a bare number; do not write a unit.

# Binder, IL2RB Blocking (HTRF signal)
rows = [
    ("PD1-IL2-R02-B05 (scFv) scFv: QVQLVQSGAEVKKPGASVKVSCKASGYTFTNYYIHWVRQAPGQGLEWMGIINPRAGYTSYALKFQGRVTMTRDTSTSTVYMELSSLRSEDTAVYYCAGGWLDWGQGTLVTVSSASGGGGSGGGGSGGGGSHASDIQMTQSPSSLSASVGDRVTITCRASQSISSWLAWYQQKPGKAPKLLIYAASSLQSGVPSRFSGSGSGTDFTLTISSLQPEDFATYYCQQSFTMPITFGQGTRLEIK", 1610),
    ("PD1-R04-C10 (scFv) MSTSTEQKLISEEDLQVQLVQSGAEVKKPGASVKVSCKASGYTFTTYYMHWVRQAPGQGLEWMGIINPSGGGTLYAQKFQGRVTMTRDTSTSTVYMELSSLRSEDTAVYYCAAGLFIWGQGTTVTVSSASGGGGSGGGGSGGGGSHASDIVMTQSPDSLAVSLGERATINCKASQSLLHSSSNKNYLAWYQQKPGQPPKLLIYWASTRESGVPDRFSGSGSGTDFTLTISSLQAEDVAVYYCQQYYSTPITFGPGTKVDIKGSGLNDIFEAQKIEWHEGKPIPNPLLGLDST", 1550),
    ("PD1-IL2-R07-A09 (scFv, cell-free expressed, V5-tagged) scFv: QVQLVQSGAEVKKPGASVKVSCKASGYTFTSYYMHWVRQAPGQGLEWMGIINPSDGSTTYAQSFQGRVTMTRDTSTSTVYMELSSLRSEDTAVYYCASGWDVWGQGTLVTVSSASGGGGSGGGGSGGGGSHASDIVMTQSPDSLAVSLGERATINCKSSQSVFSSANNKNYLAWYQQKPGQPPKLLIYWASTRESGVPDRFSGSGSGTDFTLTISSLQAEDVAVYYCQQYFGTPVTFGGGTKVEIK", 910),
    ("PD1-IL2-R02-A11 (scFv) scFv: QVQLVQSGAEVKKPGASVKVSCKASGHTFTRYYMHWVRQAPGQGLEWMGIINPSGGYATYAQKFQGRVTMTRDTSTSTVYMELSSLRSEDTAVYYCASGWDVWGQGTLVTVSSASGGGGSGGGGSGGGGSHASDIQMTQSPSSLSASVGDRVTITCRASQSINSWLAWYQQKPGKAPKLLIYATSTLESGVPSRFSGSGSGTDFTLTISSLQPEDFATYYCQQSYSFPPTFGQGTKVEIK", 1780),
]

Could you now look at the following binder, please?
Return value of IL2RB Blocking (HTRF signal) for input PD1-IL2-R02-B07 (scFv) scFv: QVQLVQSGAEVKKPGASVKVSCKASGDTFTRHYVHWVRQAPGQGLEWMGIINPSGGYASYAQKFQGRVTMTRDTSTSTVYMELSSLRSEDTAVYYCAAGLFIWGQGTLVTVSSASGGGGSGGGGSGGGGSHASDIQMTQSPSSLSASVGDRVTITCRASQSIGRWLAWYQQKPGKAPKLLIYSASNLETGVPSRFSGSGSGTDFTLTISSLQPEDFATYYCQQANSFPVTFGPGTKVDIK , no commentary.
1810
